MEASUREMENT_PROTOCOL: binders from COS7 lysate, DM2A8 probe, primary screen, torsin A project, cell lysate, small-molecule microarray, fluorescence 635/667 (AID 1065)
EXPERIMENTAL_PARAMETERS: higher = more signal, COS7 lysate expressing mutant human TOR1A
READOUT_KIND: composite z-score
Returns: the value as a bare number; no unit string appended.

compound=C=C(C(=O)CC[C@H](OC(=O)c1ccccc1-c1ccccc1C(=O)O)c1ccccc1OCCO)C(C)C readout_number=0.724
compound=C=C(C(=O)CC[C@@H](OC(=O)c1ccccc1-c1ccccc1C(=O)O)c1ccccc1OCCO)C(C)C readout_number=0.95
compound=CO[C@H]1O[C@H](CO)[C@@H](OC(=O)Nc2ccc(C#N)cc2)[C@@H]2OC(=O)[C@H](Cc3cccc(Br)c3)C/C=C/C[C@@H](Cc3cccc(Br)c3)C(=O)O[C@@H]12 readout_number=-0.0617
compound=C=C(CCCC)/C(=C/C[C@H](OC(C)=O)c1ccc(OCCO)cc1)c1cc(C(=O)OC)ccc1OC readout_number=-0.137
compound="CC1(C)C(=O)C(c2ccccc2)=C2CN3C(=O)N(CCc4ccccc4)C(=O)C3(Cc3ccc(F)cc3)C=C21 (stereo not drawn)" readout_number=-0.339
compound="COc1ccc(C(O)C2C=CC3C(=O)N(c4ccccc4)C(=O)C3N2Nc2ccccc2)cc1 (stereo not drawn)" readout_number=0.316
compound=COCCOC(=O)N1C(=O)[C@@]2(c3cc(C#CCCO)ccc31)[C@H](C(N)=O)[C@H]1C(=O)O[C@H](c3ccccc3)[C@H](c3ccccc3)N1[C@@H]2c1ccc(OCCO)cc1 readout_number=0.657

Could you now consider this next compound?
Exercise: What value of composite z-score has been recorded for this entry: `CC(C)C(=C=CC[C@H](O)c1cccc(OCCO)c1)CCO`
Key: 1.33

// data source = PubChem BioAssay
